target: T1, human wild-type TREM2 (membrane bound, isoform 1) stably overexpressed on HEK293 Flp-In cells (human)
T1 construct: also called wt TREM2; human full-length TREM2
T1 chain: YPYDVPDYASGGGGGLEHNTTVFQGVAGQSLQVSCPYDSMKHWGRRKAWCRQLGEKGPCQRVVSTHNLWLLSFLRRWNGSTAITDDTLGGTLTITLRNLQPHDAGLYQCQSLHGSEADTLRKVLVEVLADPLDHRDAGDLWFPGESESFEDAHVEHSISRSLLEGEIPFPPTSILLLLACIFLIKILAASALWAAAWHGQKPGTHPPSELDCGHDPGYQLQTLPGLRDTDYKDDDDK
procedure.details: immunofluorescence on live HEK293 Flp-In cells expressing human full-length TREM2 against empty-vector cells; hybridoma supernatant diluted 1:2
measured.metric: binding result

binder: antibody clone 15C5 (antibody, V domains shown, Rat monoclonal IgG from a hybridoma) VH: EVKLLESGGGLVQPGGSMRLSCAASGFTFTDFYMNWIRQPAGKAPEWLGLIRNKAYGYTTEYNPSVKGRFTISRDNTQDMLYLQMNTLRAEDTATYYCARIGINYGGSLDYWGQGVMVTVSS VL: DILINQSPASLTVSAGEKVTVSCKSSQSLLYSESNQDYLAWYQQKPGQFPKLLIYGASYRHTGVPDRFTGSGSGTDFTLTISSVQAEDLAHYYCEQTYSYPYTFGAGTKLELK
binding result: binds

binder: antibody clone 8A11 (antibody, V domains shown, Rat monoclonal IgG from a hybridoma) VH: EVKLLESGGGLVQPGGSMRLSCAASGFTFTDFYMNWIRQPAGKAPEWLGLIRNKTKGYTTEYNTSVKGRFTISRDNTQNMLYLQMNSLRPEDTATYYCARIGVNNGGSLDYWGQGVMVTVSS VL: DILIIQSPASLTVSAGARVTMSCKSSQSLLYSENNQDYLAWYQQKPGQFPKLLIYGASNRHTGVPDRFTGSGSGTDFTLTISSVQAEDLADYYCEQTYSYPYTFGAGTKLELK
binding result: binds

binder: antibody clone 7A12 (antibody, V domains shown, Rat monoclonal IgG from a hybridoma) VH: EVKLLESGGGLVQPGGSMRLSCAASGFTFTDFYMNWIRQPAGKAPEWLGLIRNKANGYTTQYNPSVKGRFTISRDNTQNMLYLQMNTLRGEDTATYYCARIGINNGGSLDYWGQGVMVTVSS VL: DILINQSPASLTVSAGEKVTMSCKSSQSLLYSEKNQDYLAWYQQKPGQSPKLLMYGASYRHTGVPDRFTGSGSGTDFTLTISSVQAEDLADYYCEQTYSYPYTFGAGTKLELK
binding result: binds

binder: antibody clone 14D8 (antibody, V domains shown, Rat monoclonal IgG from a hybridoma) VH: EVKLLESGGGLVQPGGSMRLSCAASGFTFTDFYMNWIRQPAGKAPEWLGLIRNKANGYTTVYNPSVKGRFTISRDNTQNMLYLQMNTLRGEDTATYYCARIGINNGGSLDYWGQGVMVTVSS VL: DILINQSPASLTVSTGEKVTMSCRSSQSLLYSEKNQDYLAWYQQKPGQFPKLLIYGASYRHTGVPDRFTGSGSGTDFTLTISSVQAEDLADYYCEQTYSYPYTFGAGTKLELK
binding result: binds

// binding result lookup, key: antibody clone 1G6 (antibody, V domains shown, Rat monoclonal IgG from a hybridoma) VH: EVKLLESGGGLVQPGGSLRLSCVASGFTFTDFYMNWIRQPAGKAPEWLGLIRNKANGFTTEYNPSVKGRFTISRDNTQHMLYLQMNTLRAEDTATYYCARIGINNGGSLDYWGQGVMVTVSS VL: DILINQSPASLTVSTGEKVTMSCKSSQSLLYSENKQDYLAWYQQKPGQFPKLLIYGASNRHTGVPDRFTGSGSGTDFTLTINIVQAEDLADYYCEQTYSYPYTFGAGTKLELK binds
